molecular target: HIV-1 IAVI-C18 envelope protein (Env) on pseudovirus (HIV-1 isolate IAVI-C18); assay: cell-based or functional assay
This section presents binders with their documented IC50 (µg/mL), pseudovirus neutralization values.

binder | valueOperator | IC50 (µg/mL), pseudovirus neutralization
1460_G14 (PGG14) (antibody, human IgG1, kappa, V domains shown) VH: QVLLVQSGTEVKKPGSSVKVSCQASGGAFSSYAFSWVRQAPGQGLEWMGMITPVFGETKYAPRFQGRLTLTAEESLSTTYMELRSLTSDDTAFYYCTRDRRVVPMATDNWLDPWGQGTLVTVSS VL: DIQLTQSPSSLSASVGDRVTVTCRASQTIHTYLNWYQQIPGKAPKLLIYGASTLQSGVPSRFSGSGSGTDFTLTINSLQPEDFATYYCQQSYSTPRTFGQGTRLDIKR | > | 50
1496_C09 (PG9) (TCN-109) (antibody, V domains shown) VH: QRLVESGGGVVQPGSSLRLSCAASGFDFSRQGMHWVRQAPGQGLEWVAFIKYDGSEKYHADSVWGRLSISRDNSKDTLYLQMNSLRVEDTATYFCVREAGGPDYRNGYNYYDFYDGYYNYHYMDVWGKGTTVTVSS VL: QSALTQPASVSGSPGQSITISCNGTSNDVGGYESVSWYQQHPGKAPKVVIYDVSKRPSGVSNRFSGSKSGNTASLTISGLQAEDEGDYYCKSLTSTRRRVFGTGTKLTVLG | = | 0.05
1456_P20 (PG20) (antibody, human IgG1, kappa, V domains shown) VH: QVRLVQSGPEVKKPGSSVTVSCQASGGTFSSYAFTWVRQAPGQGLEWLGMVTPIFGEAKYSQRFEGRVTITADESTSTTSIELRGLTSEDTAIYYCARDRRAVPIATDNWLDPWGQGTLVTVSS VL: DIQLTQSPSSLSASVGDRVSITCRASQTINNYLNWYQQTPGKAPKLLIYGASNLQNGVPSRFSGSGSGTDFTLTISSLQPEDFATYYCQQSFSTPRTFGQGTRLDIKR | > | 50
1443_C16 (PG16) (TCN-116) (antibody, V domains shown) VH: QEQLVESGGGVVQPGGSLRLSCLASGFTFHKYGMHWVRQAPGKGLEWVALISDDGMRKYHSDSMWGRVTISRDNSKNTLYLQFSSLKVEDTAMFFCAREAGGPIWHDDVKYYDFNDGYYNYHYMDVWGKGTTVTVSS VL: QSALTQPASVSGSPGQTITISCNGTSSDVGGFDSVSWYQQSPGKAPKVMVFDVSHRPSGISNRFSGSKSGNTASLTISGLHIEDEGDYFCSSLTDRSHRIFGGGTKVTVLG | = | 0.007
1495_C14 (PGC14) (antibody, human IgG1, lambda, V domains shown) VH: DGHLVQSGVEVKKTGATVKISCKVSGYSFIDYYLHWVQRAPGKGLEWVGLIDPENGEARYAEKFQGRVTIIADTSIDTGYMEMRSLKSEDTAVYFCAAGAVGADSGSWFDPWGQGTLVTVSS VL: SYELTQPPSVSVSPGQTASITCSGSKLGDKYVSWYQLRPGQSPILVMYENDRRPSGIPERFSGSNSGDTATLTISGTQALDEADFYCQAWETTTTTFVFFGGGTQLTVLG | > | 50

Value source: patent US20200024330A1
